- Species on record: Rattus norvegicus
- test_summary: Open TG-GATES - Regimen: Single
- Assay type: toxicity, organism-based, Sprague-Dawley
- Design: regimen Single, gender Male, age 6 weeks
- condition_set: in vivo, po, 0 mg/kg, 3 h, tissue Blood, route gavage, dose level Control
recorded_metric: Bas (%)
One number for each entry, in %.

Recorded results for 10 molecules are shown here.
[[record]]
molecule = "CCOc1ccc(NC(C)=O)cc1"
observed = 0

[[record]]
molecule = "CC(C)NNC(=O)c1ccncc1"
observed = 0

[[record]]
molecule = "Brc1ccccc1"
observed = 0.2

[[record]]
molecule = "Nc1c2c(nc3ccccc13)CCCC2"
observed = 0

[[record]]
molecule = "CN/C(=N/CCSCc1nc[nH]c1C)NC#N"
observed = 0

[[record]]
molecule = "CN1C(=O)CCS(=O)(=O)C1c1ccc(Cl)cc1 (centres undefined)"
observed = 0

[[record]]
molecule = "NC1=NC(=O)C(c2ccccc2)O1 (centres undefined)"
observed = 0

[[record]]
molecule = "CCCc1cc(=O)[nH]c(=S)[nH]1"
observed = 0

[[record]]
molecule = "CNC(=C[N+](=O)[O-])NCCSCc1ccc(CN(C)C)o1"
observed = 0

[[record]]
molecule = "Cc1nnc2n1-c1ccc(Cl)cc1C(c1ccccc1Cl)=NC2"
observed = 0


I need Bas for every entry listed below, if you could help.
1. CS(=O)(=O)O.Cc1ccc(NC(=O)c2ccc(CN3CCN(C)CC3)cc2)cc1Nc1nccc(-c2cccnc2)n1 [IMATINIB MESYLATE]
2. COC(=O)C1=C(C)NC(C)=C(C(=O)OC)C1c1ccccc1[N+](=O)[O-]
3. O=C(OC[C@H]1O[C@@H](OC(=O)c2cc(O)c(O)c(OC(=O)c3cc(O)c(O)c(O)c3)c2)[C@H](OC(=O)c2cc(O)c(O)c(OC(=O)c3cc(O)c(O)c(O)c3)c2)[C@@H](OC(=O)c2cc(O)c(O)c(OC(=O)c3cc(O)c(O)c(O)c3)c2)[C@@H]1OC(=O)c1cc(O)c(O)c(OC(=O)c2cc(O)c(O)c(O)c2)c1)c1cc(O)c(O)c(OC(=O)c2cc(O)c(O)c(O)c2)c1
4. CN(C)CCC(c1ccc(Cl)cc1)c1ccccn1 (centres undefined)

## Output
0
0.2
0
0.2

====

- Organism: Rattus norvegicus
- test_summary: Open TG-GATES - Regimen: Daily Repeat
- Type: toxicity, organism-based, Sprague-Dawley
- Set-up: regimen Daily Repeat, gender Male, age 6 weeks
- condition_set: in vivo, po, 1000 mg/kg, […], tissue Blood, route gavage, dose level High, time 7 day
recorded_metric: MCV (fL)
Numbers only, in fL.

Recorded results for 3 compounds are shown here.
[[record]]
structure_string = "CN/C(=N/CCSCc1nc[nH]c1C)NC#N"
unit = "fL"
observed = 62.9

[[record]]
structure_string = "CNC(=C[N+](=O)[O-])NCCSCc1ccc(CN(C)C)o1"
unit = "fL"
observed = 61.2

[[record]]
structure_string = "O=C(OC[C@H]1O[C@@H](OC(=O)c2cc(O)c(O)c(OC(=O)c3cc(O)c(O)c(O)c3)c2)[C@H](OC(=O)c2cc(O)c(O)c(OC(=O)c3cc(O)c(O)c(O)c3)c2)[C@@H](OC(=O)c2cc(O)c(O)c(OC(=O)c3cc(O)c(O)c(O)c3)c2)[C@@H]1OC(=O)c1cc(O)c(O)c(OC(=O)c2cc(O)c(O)c(O)c2)c1)c1cc(O)c(O)c(OC(=O)c2cc(O)c(O)c(O)c2)c1"
unit = "fL"
observed = 65.5


I need MCV for every entry listed below, if you could help.
1. COC(=O)C1=C(C)NC(C)=C(C(=O)OC)C1c1ccccc1[N+](=O)[O-]
2. Cc1nnc2n1-c1ccc(Cl)cc1C(c1ccccc1Cl)=NC2
3. CCOc1ccc(NC(C)=O)cc1

## Output
1: 61; 2: 62.1; 3: 72.7

====

- Organism: Rattus norvegicus
- test_summary: Open TG-GATES - Regimen: Daily Repeat
- Assay type: toxicity, organism-based, Sprague-Dawley
- Parameters: regimen Daily Repeat, gender Male, age 6 weeks
- condition_set: in vivo, po, 0 mg/kg, […], tissue Plasma, route gavage, dose level Control, time 28 day
# strict inequality: ALP < 1000 IU/L yields condition met, everything else yields condition not met

Some entries whose results are on file:
[[record]]
compound = "Brc1ccccc1"
class_name = "condition not met"

[[record]]
compound = "Nc1c2c(nc3ccccc13)CCCC2"
class_name = "condition not met"

[[record]]
compound = "Cc1nnc2n1-c1ccc(Cl)cc1C(c1ccccc1Cl)=NC2"
class_name = "condition not met"

[[record]]
compound = "O=C(OC[C@H]1O[C@@H](OC(=O)c2cc(O)c(O)c(OC(=O)c3cc(O)c(O)c(O)c3)c2)[C@H](OC(=O)c2cc(O)c(O)c(OC(=O)c3cc(O)c(O)c(O)c3)c2)[C@@H](OC(=O)c2cc(O)c(O)c(OC(=O)c3cc(O)c(O)c(O)c3)c2)[C@@H]1OC(=O)c1cc(O)c(O)c(OC(=O)c2cc(O)c(O)c(O)c2)c1)c1cc(O)c(O)c(OC(=O)c2cc(O)c(O)c(O)c2)c1"
class_name = "condition met"

[[record]]
compound = "CN(C)CCC(c1ccc(Cl)cc1)c1ccccn1 (stereo not drawn)"
class_name = "condition not met"

[[record]]
compound = "CN/C(=N/CCSCc1nc[nH]c1C)NC#N"
class_name = "condition met"

[[record]]
compound = "CCOc1ccc(NC(C)=O)cc1"
class_name = "condition not met"


Note: attention shifts to another entry.
## Input Lab log: compare recorded ALP with 1000 IU/L; is it strictly lower for CN1C(=O)CCS(=O)(=O)C1c1ccc(Cl)cc1 (stereo not drawn) ?
## Output condition not met

====

Would you kindly list PL for each of these compounds?
- Species on record: Rattus norvegicus
- test_summary: Open TG-GATES - Regimen: Daily Repeat
- Format: toxicity, organism-based, Sprague-Dawley
- Set-up: regimen Daily Repeat, gender Male, age 6 weeks
- condition_set: in vivo, po, 300 mg/kg, […], tissue Plasma, route gavage, dose level Middle, time 14 day
One number for each entry, in mg/dL.

Recorded results for 5 compounds are shown here.
[[record]]
compound = "Cc1nnc2n1-c1ccc(Cl)cc1C(c1ccccc1Cl)=NC2 [TRIAZOLAM]"
unit = "mg/dL"
observed = 140

[[record]]
compound = "O=C(OC[C@H]1O[C@@H](OC(=O)c2cc(O)c(O)c(OC(=O)c3cc(O)c(O)c(O)c3)c2)[C@H](OC(=O)c2cc(O)c(O)c(OC(=O)c3cc(O)c(O)c(O)c3)c2)[C@@H](OC(=O)c2cc(O)c(O)c(OC(=O)c3cc(O)c(O)c(O)c3)c2)[C@@H]1OC(=O)c1cc(O)c(O)c(OC(=O)c2cc(O)c(O)c(O)c2)c1)c1cc(O)c(O)c(OC(=O)c2cc(O)c(O)c(O)c2)c1 [TANNIC ACID]"
unit = "mg/dL"
observed = 151.6

[[record]]
compound = "CNC(=C[N+](=O)[O-])NCCSCc1ccc(CN(C)C)o1 [RANITIDINE]"
unit = "mg/dL"
observed = 151.6

[[record]]
compound = "COC(=O)C1=C(C)NC(C)=C(C(=O)OC)C1c1ccccc1[N+](=O)[O-] [NIFEDIPINE]"
unit = "mg/dL"
observed = 150

[[record]]
compound = "CN/C(=N/CCSCc1nc[nH]c1C)NC#N [CIMETIDINE]"
unit = "mg/dL"
observed = 164.2


## Input Can you share its PL? I mean this compound: CCOc1ccc(NC(C)=O)cc1 [PHENACETIN]
## Output 162.2

====

- Organism: Rattus norvegicus
- test_summary: Open TG-GATES - Regimen: Single
- Type: toxicity, organism-based, Sprague-Dawley
- Design: regimen Single, gender Male, age 6 weeks
- condition_set: in vivo, po, 0 mg/kg, 9 h, tissue Plasma, route gavage, dose level Control
# strict inequality: TC < 80 mg/dL yields class 1, everything else yields class 0

[[record]]
compound = "CN(C)CCC(c1ccc(Cl)cc1)c1ccccn1 (configuration not stated)"
class_name = "class 1"

[[record]]
compound = "Nc1c2c(nc3ccccc13)CCCC2"
class_name = "class 1"

[[record]]
compound = "CN/C(=N/CCSCc1nc[nH]c1C)NC#N"
class_name = "class 1"

[[record]]
compound = "Brc1ccccc1"
class_name = "class 0"


## Input Lab log: compare recorded TC with 80 mg/dL; is it strictly lower for `CNC(=C[N+](=O)[O-])NCCSCc1ccc(CN(C)C)o1` ?
## Output class 1

====

- Species: Rattus norvegicus
- test_summary: Open TG-GATES - Regimen: Daily Repeat
- Format: toxicity, organism-based, Sprague-Dawley
- Design: regimen Daily Repeat, gender Male, age 6 weeks
- condition_set: in vivo, po, 300 mg/kg, […], tissue Plasma, route gavage, dose level Middle, time 28 day
// label = Fulfilled if GLC is not less than 200 mg/dL, otherwise Not fulfilled

[[record]]
structure_string = "CN/C(=N/CCSCc1nc[nH]c1C)NC#N"
class_name = "Fulfilled"


## Input Given the entry `Cc1nnc2n1-c1ccc(Cl)cc1C(c1ccccc1Cl)=NC2` , answer whether its GLC meets or surpasses 200 mg/dL.
## Output Not fulfilled

## Input Given the entry `COC(=O)C1=C(C)NC(C)=C(C(=O)OC)C1c1ccccc1[N+](=O)[O-]` , answer whether its GLC meets or surpasses 200 mg/dL.
## Output Not fulfilled

## Input Given the entry `CCOc1ccc(NC(C)=O)cc1` , answer whether its GLC meets or surpasses 200 mg/dL.
## Output Not fulfilled

Reference source for all entries: ChEMBL document CHEMBL3885861
